Assay: Tmax in Balb/C mouse at 3.5 mg/kg, po
Format: ADME, organism-based
Set-up: dose 3.5 mg/kg, route oral
Conditions: in vivo
value-kind: Tmax
Please report the result as a number followed by the unit.

Query: Looking for the measured Tmax of `Clc1ccc(C2(c3nnc4c(C5CC5)cccn34)CC2)cc1` , can you help?
Reply: 1 h

* * *

Assay: Solubility at pH 7.4
Type: physicochemical
Settings: buffer
value-kind: solubility (µg/mL)
# unit: µg/mL | format: bare number

Query: Given `Clc1ccc(C2(c3nnc4c(C5CC5)cccn34)CC2)cc1` , state its recorded solubility.
Reply: 76

* * *

Assay: Stability in mouse microsomes assessed as parent compound remaining after 30 mins
Type: ADME, Microsome
Conditions: read-out: Stability
value-kind: remaining at 0.5 h

Query: Look up remaining at 0.5 h: `Clc1ccc(C2(c3nnc4c(C5CC5)cccn34)CC2)cc1`
Reply: 100%
